Each recorded value in this set is attributed to ChEMBL document CHEMBL4196247.

- Test system: BV-2
- Measurement description: Antineuroinflammatory activity in mouse BV2 cells assessed as inhibition of LPS-induced nitric oxide production measured after 24 hrs by Griess assay
- Format: functional, cell-based
- Experimental context: BV-2, 24 h
Readout name: IC50 (µM)

Example compounds with recorded IC50:
Compound | IC50 (µM)
CN(C)c1ccc(O)c2c1C[C@H]1C[C@H]3[C@H](N(C)C)C(O)=C(C(N)=O)C(=O)[C@@]3(O)C(O)=C1C2=O [MINOCYCLINE] | 4.9
O=c1ccc2cc3c(cc2o1)O[C@H](c1ccc(O)c(O)c1)[C@@H](CO)O3 | 13.8

(a) COc1c2c(cc3ccc(=O)oc13)O[C@@H](c1ccc(O)c(O)c1)[C@H](CO)O2
(b) CC1(C)CC[C@]2(C(=O)O)CC=C3[C@]4(C)CC[C@H]5C(C)(C)[C@@H](OC(=O)/C=C/c6ccc(O)cc6)C[C@H](O)[C@]5(C)[C@H]4CC[C@@]3(C)[C@@H]2C1
(c) CC1(COC(=O)/C=C/c2ccc(O)cc2)CC[C@]2(C(=O)O)CC=C3[C@]4(C)CC[C@H]5C(C)(C)C(=O)C=C[C@]5(C)[C@H]4CC[C@@]3(C)[C@@H]2C1 (stereo partly drawn)
(d) CC1(COC(=O)/C=C\c2ccc(O)cc2)CC[C@]2(C(=O)O)CC=C3[C@]4(C)CC[C@H]5C(C)(C)C(=O)C=C[C@]5(C)[C@H]4CC[C@@]3(C)[C@@H]2C1 (stereo partly drawn)
(e) COc1c2c(cc3ccc(=O)oc13)O[C@H](c1ccc(O)c(O)c1)[C@@H](CO)O2
Parameters: sort_field (IC50), sort_dir (desc). Record the ranking as a list of labels in the requested order.
b, e, a, c, d
